A collection of molecules and their measured emission maximum
protocolText: solvent given as SMILES
conditionNotes: in C1CCOC1
Please respond with the number in nm and leave the unit unwritten.

inputSmiles	valueReported
COc1ccc(C2=C(c3ccc(OC)cc3)C(c3ccc(OC)cc3)=[N+]3C2=C(c2ccc(OC)cc2)c2c(-c4ccc(OC)cc4)c(-c4ccc(OC)cc4)c(-c4ccc(OC)cc4)n2[B-]3(F)F)cc1	640
O=C(c1ccc(N2c3ccccc3Oc3ccccc32)cc1)c1ccc2sc3ccccc3c2c1	594
COc1cc2c(cc1/C=C(\C#N)c1nc3ccccc3s1)c1ccccc1n2C	499

Entry C(=C\c1nc2ccccc2[nH]1)/c1ccc(-c2nc3c4cccnc4c4ncccc4c3[nH]2)cc1 needs its emission maximum filled in; supply it. 444

Entry CC(C)(C)c1ccc(-c2c(-c3ccc(-n4c5ccccc5c5ccccc54)cc3)cc(-c3ccc(-n4c5ccccc5c5ccccc54)cc3)c(-c3ccc(C(C)(C)C)cc3)c2-c2ccc(C(C)(C)C)cc2)cc1 needs its emission maximum filled in; supply it. 367

Entry Cc1cc(C)c(C2=C3C=c4c(c5ccc(C(C)(C)C)cc5c5cc(C(C)(C)C)ccc45)=[N+]3[B-](F)(F)n3c2cc2c4ccc(C(C)(C)C)cc4c4cc(C(C)(C)C)ccc4c23)c(C)c1 needs its emission maximum filled in; supply it. 711

----------
protocolText: solvent given as SMILES
conditionNotes: in ClCCl
quantityMeasured: emission maximum (nm)
Please respond with the number in nm and leave the unit unwritten.

Completed entries (count: 3):
compound	unitsText	emission maximum
c1ccc2c(c1)c1ccccc1n2-c1ccc(-c2ccc(-n3c4ccccc4c4ccccc43)nc2-n2c3ccccc3c3ccccc32)nn1	nm	432.68
ClP1(Cl)=N[P@](Cl)(Oc2ccc3ccc4cccc5ccc2c3c45)=N[P@@](Cl)(Oc2ccc3ccc4cccc5ccc2c3c45)=N1	nm	419
COC(=O)C1=C(C(=O)OC)[Se](=O)[C@]23C1=C[C@H](c1ccccc12)c1ccccc13 (some centres undefined)	nm	495

Consider the additional compound presented here.
Entry CCOC(=O)c1c(-c2cc3ccccc3oc2=O)nn(-c2cccc(F)c2)c1C(=O)OCC needs its emission maximum filled in; supply it. 401

----------
protocolText: solvent given as SMILES
conditionNotes: in ClCCl
quantityMeasured: emission maximum (nm)
Please respond with the number in nm and leave the unit unwritten.

Completed entries (count: 3):
molecule	valueReported
COC(=O)c1c(-c2cc3ccccc3oc2=O)nn(-c2cccc(C)c2)c1C(=O)OC	401
C1=C(c2ccccc2)S[C@]23C1=C(c1ccccc1)[C@H](c1ccccc12)c1ccccc13	491
CCCCC(CC)COc1cc(OCC(CC)CCCC)c2c#cc3ccc4sc5ccc(c#cc6cc(c#cc7ccc8sc9ccc(c#cc1c2)cc9c8c7)c(C(CCCC)OCCC)cc6C(CCCC)OCCC)cc5c4c3 (configuration not stated)	377

Entry CCOC(=O)c1c(-c2cc3ccccc3oc2=O)nn(-c2ccccc2)c1C(=O)OCC needs its emission maximum filled in; supply it. 401

Entry Cc1cc(C)c(C2=C3C=C(/C=C/C(=O)OCc4ccccc4)C=[N+]3[B-](F)(F)n3cc(/C=C/C(=O)OCc4ccccc4)cc32)c(C)c1 needs its emission maximum filled in; supply it. 604

Entry CCOC(=O)c1ccc(C2CC(c3cccc4ccccc34)=NN2c2ccc(F)cc2)cc1 (configuration not stated) needs its emission maximum filled in; supply it. 481

Entry Fc1ccc(N(c2ccc(F)cc2)c2ccc3c4cccc5c(N(c6ccc(F)cc6)c6ccc(F)cc6)ccc(c6cccc2c63)c54)cc1 needs its emission maximum filled in; supply it. 546

Entry O=S(=O)(c1ccc(-c2ccc(-c3nc4c5ccccc5c5ccccc5c4n3-c3ccccc3)cc2)cc1)c1ccc(-c2ccc(-c3nc4c5ccccc5c5ccccc5c4n3-c3ccccc3)cc2)cc1 needs its emission maximum filled in; supply it. 461
